pIC50: −log10 of the molar value.
Here we gather pIC50 data for human Bub1 (Homo sapiens (Human), UniProt O43683) reported by several publications.

Below: 6 compounds and their reported pIC50.
Cc1nsc(Nc2cnc(C(F)(F)F)cn2)c1C(=O)Nc1ccc(F)c(OC[C@@H]2CCCN(CCC(F)(F)F)C2)c1 : < 4.70
Cc1nsc(Nc2cnc3ccccc3n2)c1C(=O)Nc1ccc(F)c(C(N)=O)c1 : < 4.70
Cc1nsc(Nc2ccc(C#N)cn2)c1C(=O)Nc1cccc(N)c1 : < 4.70
Cc1nsc(Nc2ccc(C#N)cn2)c1C(=O)Nc1ccc(N[C@@H](C)C(=O)OC(C)(C)C)nc1 : < 4.70
Cc1nsc(Nc2cnc(C(F)(F)F)cn2)c1C(=O)Nc1ccc(OC[C@H]2CCN(CC(F)(F)F)C2)nc1 (racemic) : < 4.70
Cc1nsc(Nc2cncc(C(F)(F)F)n2)c1C(=O)Nc1ccc(C(=O)NC2CN(CC(F)(F)F)C2)cc1 : < 4.70

Returns the measured pIC50 for the input compound. Input: "Cc1nsc(Nc2cnc(C(F)(F)F)cn2)c1C(=O)Nc1ccc(OC[C@@H]2CCN(CC(F)F)C2)nc1"
≤ 4.70

Report pIC50 for "Cc1nsc(Nc2cnc3ccccc3n2)c1C(=O)Nc1cccc(C(=O)N2CCN(C)CC2)c1" please.
4.72

Look up pIC50: "CCOC(=O)c1cnc(Nc2snc(C)c2C(=O)Nc2ccccc2CC)s1"
< 4.70

Name the recorded pIC50 for "CCc1ccccc1NC(=O)c1c(C)nsc1Nc1ncccc1C#N" .
< 4.70

Which pIC50 reading was recorded for the compound Cc1nsc(Nc2cnc(C(F)(F)F)cn2)c1C(=O)Nc1ccc(OCC2CCCN(CCC(F)(F)F)C2)nc1 (stereo not shown) ?
≤ 4.70

If you can, please state the reported pIC50 value of "Cc1noc(Nc2cnc(C(F)(F)F)cn2)c1C(=O)Nc1ccc(OC[C@H]2CCN(CCC(F)(F)F)C2)nc1" .
< 4.70
